# System: human colon carcinoma cells (HCT116)
# testDescription: colorimetric MTT cytotoxicity assay, HCT116
# Type: cell-based
# appliedConditions: Homo sapiens, HCT-116; HCT116, 48 h, MTT, n = 3, compounds as HP-β-CD inclusion complex; read-out: IC50 (µM ± SD) HCT116 48 h
# Method: The potential antitumor activity of eight new hybrids was evaluated through colorimetric microculture MTT assay against three tumor cell lines: human colon carcinoma cells (HCT116), human laryngeal tumor cells (Hep-2), and human lung carcinoma cells (A549). […] Cytotoxicity was assayed through the colorimetric microculture MTT assay. […] After the incubation, the cells were treated with various concentrations of the evaluated compounds (7a,b, 8a,b, 9a,b, or 10a,b) and incubated for 24 and 48 h. […]
In this section we review reported IC50 values for a set of compounds.
Give the value in µM but do not write µM after it.

| compound | resultValue |
| --- | --- |
| O=c1cc(Cn2cc(Cn3ccc(=O)n(Cc4cn(Cc5cc(=O)oc6c5ccc5ccccc56)nn4)c3=O)nn2)c2ccc3ccccc3c2o1 | 59.2 |

Qu. Need IC50 of Cn1cnc2c1c(=O)n(Cc1cn(Cc3cc(=O)oc4c3ccc3ccccc34)nn1)c(=O)n2C [Compound 10b] , thanks.
Ans. 84.7

Qu. # query: IC50 of entry O=c1cc(Cn2cc(Cn3ccc(=O)n(Cc4cn(Cc5cc(=O)oc6cc(O)cc(O)c56)nn4)c3=O)nn2)c2c(O)cc(O)cc2o1
Ans. 24.2

Qu. Sample COc1cccc2c1C(=O)c1c(O)c3c(c(O)c1C2=O)C[C@@](O)(C(=O)CO)C[C@@H]3O[C@H]1C[C@H](N)[C@H](O)[C@H](C)O1 [Doxorubicin, doxorubicin, reference compound] — what was its IC50?
Ans. 1.23

====

Quick reference for melting point among some molecules

Some molecules with known melting point results, for comparison:
| molecule | melting point |
| --- | --- |
| O=c1cc(Cn2cc(Cn3ccc(=O)n(Cc4cn(Cc5cc(=O)oc6c5ccc5ccccc56)nn4)c3=O)nn2)c2ccc3ccccc3c2o1 [Compound 9b] | 193 to 195 °C |
| Cn1cnc2c1c(=O)n(Cc1cn(Cc3cc(=O)oc4c3ccc3ccccc34)nn1)c(=O)n2C [Compound 10b] | 288 to 290 °C |
| O=c1cc(Cn2cc(Cn3ccc(=O)n(Cc4cn(Cc5cc(=O)oc6cc(O)cc(O)c56)nn4)c3=O)nn2)c2c(O)cc(O)cc2o1 [Compound 9a] | 302 °C (dec.) |
| Cc1cn(Cc2cn(Cc3cc(=O)oc4c3ccc3ccccc34)nn2)c(=O)[nH]c1=O [Compound 8b] | 270 to 272 °C |
| O=c1ccn(Cc2cn(Cc3cc(=O)oc4cc(O)cc(O)c34)nn2)c(=O)[nH]1 [Compound 7a] | 230 °C (dec.) |

Qu. I am curious: what melting point value has been reported for Cn1cnc2c1c(=O)n(Cc1cn(Cc3cc(=O)oc4cc(O)cc(O)c34)nn1)c(=O)n2C [Compound 10a] ?
Ans. 315 °C (dec.)

Qu. Return reported melting point; argument: O=c1ccn(Cc2cn(Cc3cc(=O)oc4c3ccc3ccccc34)nn2)c(=O)[nH]1 [Compound 8a]
Ans. 235 °C (dec.)

Qu. So what's the measured melting point for this one? Cc1cn(Cc2cn(Cc3cc(=O)oc4cc(O)cc(O)c34)nn2)c(=O)[nH]c1=O [Compound 7b]
Ans. 285 °C (dec.)
